Numbers sourced from patent US20240174727A1.

Would you kindly list cGMP Assay (EC50, pM) w/BSA for each of these binders?
# Assay System: T1, human NPRA (human, UniProt P16066 33-1061)
# T1 sequence (looked up): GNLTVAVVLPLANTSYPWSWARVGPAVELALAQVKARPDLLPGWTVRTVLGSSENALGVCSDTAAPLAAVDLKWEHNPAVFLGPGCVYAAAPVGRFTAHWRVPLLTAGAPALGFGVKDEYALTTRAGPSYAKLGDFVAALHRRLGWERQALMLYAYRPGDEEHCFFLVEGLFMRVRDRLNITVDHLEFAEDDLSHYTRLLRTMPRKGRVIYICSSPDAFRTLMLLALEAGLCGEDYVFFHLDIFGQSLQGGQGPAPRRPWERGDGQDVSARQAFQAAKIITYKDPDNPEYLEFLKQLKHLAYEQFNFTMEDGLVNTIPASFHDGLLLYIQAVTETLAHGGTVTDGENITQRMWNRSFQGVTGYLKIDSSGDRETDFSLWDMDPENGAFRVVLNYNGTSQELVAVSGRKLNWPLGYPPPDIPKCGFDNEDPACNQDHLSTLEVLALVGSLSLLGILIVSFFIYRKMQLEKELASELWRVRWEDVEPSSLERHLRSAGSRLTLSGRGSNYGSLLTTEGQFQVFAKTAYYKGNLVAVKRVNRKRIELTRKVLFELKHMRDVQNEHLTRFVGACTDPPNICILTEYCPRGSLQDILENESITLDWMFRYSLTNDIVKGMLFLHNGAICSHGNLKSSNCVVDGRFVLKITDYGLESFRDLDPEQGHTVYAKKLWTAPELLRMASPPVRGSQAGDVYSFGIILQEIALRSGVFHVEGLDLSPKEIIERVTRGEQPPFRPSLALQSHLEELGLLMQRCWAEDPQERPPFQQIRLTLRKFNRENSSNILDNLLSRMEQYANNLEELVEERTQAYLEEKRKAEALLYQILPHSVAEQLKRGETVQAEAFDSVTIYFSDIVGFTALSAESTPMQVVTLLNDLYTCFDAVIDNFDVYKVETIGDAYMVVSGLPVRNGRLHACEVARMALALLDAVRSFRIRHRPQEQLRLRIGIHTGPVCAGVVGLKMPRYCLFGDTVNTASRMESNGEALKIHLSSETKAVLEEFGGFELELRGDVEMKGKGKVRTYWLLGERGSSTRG
# Experiment: cell-based or functional assay
Numbered stars: 1 amine (or outer) side, 2 acyl side, 3 side chain; on linkers, the order of the positions; unused ones are H or OH. Bridge positions count the residues as written; N and C are the ends. Square brackets hold non-standard residues; d marks the D form. Ends that are not written are not given here. * marks the point of attachment. thioacetal = thioacetal linkage between two cysteines (intrachain bond at the bracketed Cys); C20 diacid = O=C(O)CCCCCCCCCCCCCCCCCCC(=O)*; γGlu = O=C(O)[C@H](CCC(=O)[*:2])N[*:1]; 4Pal = N[C@@H](Cc1ccncc1)C(=O)O; βAla = NCCC(=O)O
One number for each entry, in pM.

// worked examples, cGMP Assay (EC50, pM) w/BSA included
Binder	Unit Of Measure	cGMP Assay (EC50, pM) w/BSA
EK[βAla]RSSCFGKRIDRIGHQSGLGCPSFRHGGKSSGAPPPS-NH2 (bridge 7-23 via thioacetal; not fully specified (N-terminus)) [Example 90]	pM	19700
EKXRSSCFGKRIDRIGHQSGLGCPSFRHGGKSSGAPPPS (HOOC-(CH2)18-CO-(γGlu)-EKEKEKG-PEG24-EK-βAla-RSS[CFGKRIDRIGHQSGLGC]PSFRHGGKSSGAPPPS-NH2; thioacetal linkage between the bracketed Cys) [Example 3]	pM	6920
XEKEKEKGSXRRSSCFGGRIDRIGHQSGLGCPSFRHGGPSSGAPPPS (not fully specified; HOOC-(CH2)18-CO-(γGlu)-EKEKEKGS-4Pal-RRSS[CFGGRIDRIGHQSGLGC]PSFRHGGPSSGAPPPS-NH2; thioacetal linkage between the bracketed Cys) [Example 69]	pM	61400
EKXRSSCFGGRIDRIGHYSGLGCPSFRHGGKSSGAPPPS (HOOC-(CH2)18-CO-(γGlu)-EKEKEKG-PEG24-EK-βAla-RSS[CFGGRIDRIGHYSGLGC]PSFRHGGKSSGAPPPS-NH2; thioacetal linkage between the bracketed Cys) [Example 78]	pM	19700
{C20 diacid}-[γGlu]EKEKEKGKE[βAla]RSSCFGGRIDRIGHYSGLGCPSFRHGGPSSGAPPPS-NH2 (bridge 15-31 via thioacetal) [Example 58]	pM	104000
{C20 diacid}-[γGlu]EKEKEKGS[4Pal]RRSSCFGGRIDRIGHQSGLGCPSFRHGGKSSGAPPPS-NH2 (bridge 15-31 via thioacetal) [Example 72]	pM	46400
EKXRSSCFGKRIDRIGHQSGLGCPSFRHGGKSSGAPPPS (HOOC-(CH2)18-CO-(γGlu)-EKEKEKG-(AEEA)6-EK-βAla-RSS[CFGKRIDRIGHQSGLGC]PSFRHGGKSSGAPPPS-NH2; thioacetal linkage between the bracketed Cys) [Example 89]	pM	10800
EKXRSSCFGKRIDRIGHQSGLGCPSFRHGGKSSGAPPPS (HOOC-(CH2)18-CO-(γGlu)-EKEKEKG-(AEEA)4-EK-βAla-RSS[CFGKRIDRIGHQSGLGC]PSFRHGGKSSGAPPPS-NH2; thioacetal linkage between the bracketed Cys) [Example 88]	pM	16300

Count: 2. Required value per item: cGMP Assay (EC50, pM) w/BSA.
1. {C20 diacid}-[γGlu]EKEKEKGEK[βAla]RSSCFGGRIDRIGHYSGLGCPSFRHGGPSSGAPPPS-NH2 (disulfide 15-31) [Example 54]
2. {C20 diacid}-[γGlu]EKEKEKGS[4Pal]KRSSCFGGKIDRIGHQSGLGCPSFRHGPSSGAPPPS-NH2 (disulfide 15-31) [Example 33]

1: 19300; 2: 22200
